MEASURED ON: UniProt P42336
Sequence (P42336 whole entry, species assumed): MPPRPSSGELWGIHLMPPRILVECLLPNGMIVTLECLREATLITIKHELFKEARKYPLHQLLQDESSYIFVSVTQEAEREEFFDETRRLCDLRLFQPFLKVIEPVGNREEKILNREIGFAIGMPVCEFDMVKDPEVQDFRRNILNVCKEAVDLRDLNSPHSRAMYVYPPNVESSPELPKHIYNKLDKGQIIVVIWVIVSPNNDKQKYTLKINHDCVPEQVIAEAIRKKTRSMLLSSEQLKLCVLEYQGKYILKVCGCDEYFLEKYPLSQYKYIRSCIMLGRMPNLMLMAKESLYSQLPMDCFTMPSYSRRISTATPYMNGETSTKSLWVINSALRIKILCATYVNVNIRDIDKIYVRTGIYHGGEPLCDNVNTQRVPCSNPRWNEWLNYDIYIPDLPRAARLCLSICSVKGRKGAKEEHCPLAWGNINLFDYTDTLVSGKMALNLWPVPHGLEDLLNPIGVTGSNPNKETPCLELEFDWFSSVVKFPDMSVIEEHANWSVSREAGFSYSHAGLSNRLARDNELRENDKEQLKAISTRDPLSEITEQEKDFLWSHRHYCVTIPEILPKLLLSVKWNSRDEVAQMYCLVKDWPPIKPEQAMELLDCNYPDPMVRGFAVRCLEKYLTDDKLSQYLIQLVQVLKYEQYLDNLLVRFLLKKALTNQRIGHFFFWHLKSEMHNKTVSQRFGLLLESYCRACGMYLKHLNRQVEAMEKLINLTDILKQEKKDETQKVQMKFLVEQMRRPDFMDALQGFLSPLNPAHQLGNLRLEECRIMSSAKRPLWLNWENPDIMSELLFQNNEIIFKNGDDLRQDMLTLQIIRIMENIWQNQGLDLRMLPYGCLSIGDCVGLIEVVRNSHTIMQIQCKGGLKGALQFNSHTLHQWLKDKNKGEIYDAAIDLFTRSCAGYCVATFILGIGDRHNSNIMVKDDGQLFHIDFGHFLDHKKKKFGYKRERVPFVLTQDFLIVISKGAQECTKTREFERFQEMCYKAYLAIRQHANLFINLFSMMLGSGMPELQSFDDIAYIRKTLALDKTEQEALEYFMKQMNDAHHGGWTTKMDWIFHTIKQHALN
Sequence (P27986 whole entry partner, species assumed): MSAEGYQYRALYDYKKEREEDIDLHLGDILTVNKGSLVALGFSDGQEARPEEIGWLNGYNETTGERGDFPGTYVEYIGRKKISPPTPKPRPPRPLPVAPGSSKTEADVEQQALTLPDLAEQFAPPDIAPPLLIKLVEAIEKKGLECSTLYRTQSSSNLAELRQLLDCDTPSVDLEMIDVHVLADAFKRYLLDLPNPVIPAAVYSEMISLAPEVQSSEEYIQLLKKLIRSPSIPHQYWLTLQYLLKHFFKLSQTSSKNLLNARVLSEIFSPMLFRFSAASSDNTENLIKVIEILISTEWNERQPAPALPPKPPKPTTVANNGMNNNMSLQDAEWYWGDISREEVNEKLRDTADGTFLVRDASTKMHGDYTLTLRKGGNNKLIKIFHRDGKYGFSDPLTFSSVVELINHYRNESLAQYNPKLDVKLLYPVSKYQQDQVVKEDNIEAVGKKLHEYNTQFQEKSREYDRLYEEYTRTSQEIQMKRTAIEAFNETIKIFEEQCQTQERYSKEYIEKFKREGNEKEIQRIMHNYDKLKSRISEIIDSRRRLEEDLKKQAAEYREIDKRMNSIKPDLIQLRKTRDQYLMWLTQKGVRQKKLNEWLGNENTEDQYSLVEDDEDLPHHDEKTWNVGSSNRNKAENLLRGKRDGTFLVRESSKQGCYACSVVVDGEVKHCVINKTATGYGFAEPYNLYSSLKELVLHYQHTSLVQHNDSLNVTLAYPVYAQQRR
EXPERIMENT: PI3K-alpha fluorescence polarization assay
Format: biochemical
CONDITION: read-out: PI3Kα Avg. IC50
QUANTITY MEASURED: pIC50
When answering, recall that pIC50 equals minus log10 of the concentration in mol/L, and write that number alone.

Give the value of pIC50 reported for the following: `COC(=O)c1cccc2c(C=C3Oc4cc(O)cc(O)c4C3=O)cn(C)c12` 5.45

Give the value of pIC50 reported for the following: `COc1cccc2c1c(/C=C1\Oc3cc(O)cc(O)c3C1=O)c(-c1ccccc1)n2C` 6.02

Give the value of pIC50 reported for the following: COc1ccc2c(c1)c(/C=C1\Oc3cc(O)ccc3C1=O)c(C)n2CCN1CCCC1C (centres unmarked) 7.31

Give the value of pIC50 reported for the following: `CCn1c(C)c(/C=C2\Oc3ccc(NC(=O)Nc4ccc(N(C)C(=O)CCN(C)C)cc4)cc3C2=O)c2cc(OC)ccc21` 8.40

Give the value of pIC50 reported for the following: `O=C1C(=Cc2c[nH]c3ccccc23)Oc2cccc(O)c21` 4.92

Give the value of pIC50 reported for the following: `CNC(=O)Nc1ccc2c(c1)C(=O)/C(=C/c1c(C)n(CCCN3CCCC3)c3ccc(OC)cc13)O2` 8.46

Give the value of pIC50 reported for the following: `COc1ccc2c(c1)c(/C=C1\Oc3cc(O)cc(O)c3C1=O)c(C1CC1)n2CCN1CCN(C)CC1` 7.77

----------
Would you mind telling me the reported IC50 of each entry?
MEASURED ON: human TOR (Homo sapiens, UniProt P42345)
Construct: FLAG
EXPERIMENT: mTOR enzyme assay (DELFIA, His6-S6K substrate)
Format: biochemical
CONDITION: read-out: mTOR Kinase Avg. IC50
Just the number please, in nM, no unit attached.

Give the value of IC50 reported for the following: Cn1cc(/C=C2\Oc3cc(O)cc(O)c3C2=O)c2c(-c3ccc(F)cc3)cccc21 [Example 364] 123

Give the value of IC50 reported for the following: O=C1C(=Cc2c(-c3ccsc3)[nH]c3ccccc23)Oc2cc(O)cc(O)c21 [Example 207] 300

Give the value of IC50 reported for the following: COc1ccc2c(c1)c(C=C1Oc3cc(O)cc(O)c3C1=O)c(C)n2CCCN1CCN(CCO)CC1 [Example 103] 108

Give the value of IC50 reported for the following: O=C1C(=Cc2c[nH]c3c(O)cccc23)Oc2cc(O)cc(O)c21 [Example 246] 17000

Give the value of IC50 reported for the following: CNC(=O)Nc1ccc2c(c1)C(=O)/C(=C/c1c(-c3c(C)nn(C)c3C)[nH]c3c(OC)c(F)c(OC)cc13)O2 [Compound 712] 240

Give the value of IC50 reported for the following: COc1ccc2c(c1)c(/C=C1\Oc3cc(N)ccc3C1=O)cn2CCCN(C)C [Example 418] 10300

Give the value of IC50 reported for the following: COc1ccc(-c2c(C=C3Oc4cc(O)cc(O)c4C3=O)c3ccccc3n2C)cc1 [Example 195] 380

Give the value of IC50 reported for the following: CN(C)c1ccc(-c2[nH]c3ccccc3c2C=C2Oc3cc(O)cc(O)c3C2=O)cc1 [Example 211] 590

Give the value of IC50 reported for the following: O=C1C(=Cc2c[nH]c3c(Br)cccc23)Oc2cc(O)cc(O)c21 [Example 244] 18000

Give the value of IC50 reported for the following: O=C1C(=Cc2c[nH]c3cc([N+](=O)[O-])ccc23)Oc2cc(O)cc(O)c21 [Example 179] 16000

Give the value of IC50 reported for the following: Cn1cc(/C=C2\Oc3cc(O)cc(O)c3C2=O)c2c(-c3ccccc3N)cccc21 [Example 419] 24

Give the value of IC50 reported for the following: NC(=O)Cn1c(-c2ccccc2)c(C=C2Oc3cc(O)cc(O)c3C2=O)c2ccccc21 [Example 161] 600

Give the value of IC50 reported for the following: CS(=O)(=O)c1ccc2c(C=C3Oc4cc(O)cc(O)c4C3=O)c[nH]c2c1 [Example 169] 9100

Give the value of IC50 reported for the following: O=C1C(=Cc2c(-c3ccncc3)[nH]c3ccccc23)Oc2cc(O)cc(O)c21 [Example 203] 150

Give the value of IC50 reported for the following: COc1ccc2c(c1)c(C=C1Oc3cc(O)cc(O)c3C1=O)cn2CCCCN1CCOCC1 [Example 115] 980

Give the value of IC50 reported for the following: COc1ccc2c(c1)c(C=C1Oc3cc(O)cc(O)c3C1=O)c(C)n2CCN(C)C [Example 110] 17.5

Give the value of IC50 reported for the following: CN(C)C(=O)Nc1ccc(-c2cccc3c2c(/C=C2\Oc4cc(O)cc(O)c4C2=O)cn3C)cc1 [Example 394] 69

Give the value of IC50 reported for the following: COc1ccc2c(c1)c(C=C1Oc3cc(O)cc(O)c3C1=O)c(C)n2CCCN1CCC(N(C)C)C1 (stereo not shown) [Example 104] 130

Give the value of IC50 reported for the following: COc1ccc2[nH]cc(/C=C3\Oc4c(ccc(O)c4O)C3=O)c2c1 [Example 62] 16000

Give the value of IC50 reported for the following: CCn1c(C)c(/C=C2\Oc3ccc(NC(=O)Nc4ccc(NC(=O)CCN(C)C)cc4)cc3C2=O)c2cc(OC)ccc21 [Compound 676] 7

Give the value of IC50 reported for the following: CCn1c(C)c(/C=C2\Oc3ccc(NC(=O)Nc4ccc(S(=O)(=O)N5CCN(C)CC5)cc4)cc3C2=O)c2cc(OC)ccc21 [Compound 677] 595

Give the value of IC50 reported for the following: CNC(=O)Nc1ccc2c(c1)C(=O)/C(=C/c1c(C3CCCCC3)[nH]c3ccc(OC)cc13)O2 [Compound 641] 10

Give the value of IC50 reported for the following: CNC(=O)Nc1ccc2c(c1)C(=O)/C(=C/c1c(-c3c(C)nn(C)c3C)n(CCNCCN(C)C)c3ccc(OC)cc13)O2 [Compound 664] 18

Give the value of IC50 reported for the following: O=C1C(=Cc2c(-c3ccccc3)n(Cc3cccnc3)c3ccccc23)Oc2cc(O)cc(O)c21 [Example 153] 2900

Give the value of IC50 reported for the following: COc1ccc2c(c1)c(C=C1Oc3cc(O)cc(O)c3C1=O)c(C)n2CCCCN1CCN(CCO)CC1 [Example 98] 58.5

Give the value of IC50 reported for the following: COc1ccc2c(c1)c(/C=C1\Oc3cc(O)cc(O)c3C1=O)cn2CCN1CCN(C)CC1 [Example 308] 270
